# Tested on: Fibroblast
# experimentNotes: Multiplex assay against human fibroblast
# Format: toxicity, cell-based
# conditionsUsed: 48 h, 1 µM, compound concentration 1 uM, replicate 1
Below, each entry is listed alongside its reported Population Fragmented Nuclei (%).
Answer with a number only, understood to be in %.

CC(C)NC(=O)N1CC[C@H](NC2=Nc3cc(F)ccc3N(CC(F)F)c3ccc(Cl)cc32)C1
17

Please look up its Population Fragmented Nuclei (%): CC1=C(C(=O)Nc2cc3cn[nH]c3cc2F)C(c2ccc(C(F)(F)F)cc2)CC(=O)N1 (configuration not stated)
33

Query CCCSc1nc(N[C@@H]2C[C@H]2c2ccc(F)c(F)c2)c2nnn([C@@H]3C[C@H](OCCO)[C@@H](O)[C@H]3O)c2n1 next
25

Subsequent entry: COc1cc(Nc2nccc(-c3cnn4nc(OC)ccc34)n2)cc(C(F)(F)F)c1
32

###

Documented Population Fragmented Nuclei (%) across a set of compounds
# Tested on: U2OS
# experimentNotes: Multiplex assay against U2OS
# Type: toxicity, cell-based
# conditionsUsed: human, 12 h, 1 µM, compound concentration 1 uM, replicate 1
Number in %, nothing else.

Worked cases, answers included:
CCc1ccc(OCc2ccccc2C(=O)Nc2ccc3nc(C)cc(N)c3c2)cc1.Cl
25
Cc1ccc(C)c(Oc2ccncc2C(=O)N2CCN(C3CC3)c3ccccc32)c1
10
Cc1cccc(CN2CCN(C(c3ccccc3)c3ccc(Cl)cc3)CC2)c1.Cl.Cl (centres undefined)
4
CC(C)OC(=O)N1CCC(Oc2ncnc3c2cnn3-c2ccc(S(C)(=O)=O)cc2F)CC1
11

# Population Fragmented Nuclei (%) lookup, item C=CC(=O)Nc1cccc(Sc2nc(Nc3ccc(N4CCN(C)CC4)cc3)ncc2Cl)c1
5

Note, next up: CCOC(=O)Nc1cc(-c2ccc(C)c(NS(C)(=O)=O)c2)nn2c(C)nnc12
7

###

Reported values of Population Mitotic Cells (%) for individual entries
# Test system: U2OS
# experimentNotes: Multiplex assay against U2OS
# Format: toxicity, cell-based
# conditionsUsed: human, 24 h, 1 µM, compound concentration 1 uM, replicate 2
Expressed in %, but write only the number.

Known results for compounds:
C=CC(=O)Nc1cccc(Sc2nc(Nc3ccc(N4CCN(C)CC4)cc3)ncc2Cl)c1
0
CC(C)OC(=O)N1CCC(Oc2ncnc3c2cnn3-c2ccc(S(C)(=O)=O)cc2F)CC1
50

Quick check: Population Mitotic Cells (%) of C[C@]12CC[C@@H]3c4ccc(O)cc4CC[C@H]3[C@@H]1CC[C@@H]2O ?
50

Try COc1cc(Nc2nccc(-c3cnn4nc(OC)ccc34)n2)cc(C(F)(F)F)c1 next.
54

Record: CCC1=C[C@@H]2C[N@](C1)Cc1c([nH]c3ccccc13)[C@@](C(=O)OC)(c1cc3c(cc1OC)N(C)[C@H]1[C@@](O)(C(=O)OC)[C@H](OC(C)=O)[C@]4(CC)C=CCN5CC[C@]31[C@@H]54)C2.O=C(O)C(O)C(O)C(=O)O.O=C(O)C(O)C(O)C(=O)O [VINORELBINE TARTRATE]
38

Input CCCSc1nc(N[C@@H]2C[C@H]2c2ccc(F)c(F)c2)c2nnn([C@@H]3C[C@H](OCCO)[C@@H](O)[C@H]3O)c2n1
42

Now the same for CC(C)CC(=O)Nc1[nH]nc2c1CN(C(=O)C1CCN(C)CC1)C2(C)C
50

Another compound to look at: O=c1[nH]c2ccccc2n1C1CCN(Cc2ccc(-c3[nH]c4cc5ncnc5cc4nc3-c3ccccc3)cc2)CC1
58

Same for O=c1cc(N2CCOCC2)oc2c(-c3cccc4c3sc3ccccc34)cccc12
40

Would you mind doing C=CC(=O)Nc1cccc(Oc2nc(Nc3ccc(N4CCN(C)CC4)cc3OC)ncc2Cl)c1 as well?
7

Try this compound next: COc1cc2ncn(-c3cc(OCc4ccccc4C(F)(F)F)c(C(N)=O)s3)c2cc1OC [GW843682X]
44

Next record, please: CC1=C(C(=O)Nc2cc3cn[nH]c3cc2F)C(c2ccc(C(F)(F)F)cc2)CC(=O)N1 (stereo unspecified)
57

What do we get for Cc1c[nH]c2nccc(Oc3c(F)cc(Nc4cc(Cl)nc(N)n4)cc3F)c12 ?
53

What about this compound? CC(C)c1noc(N2CCC(COc3ccc(-c4ccc(S(C)(=O)=O)cc4)nc3)CC2)n1
100

Input Cc1cccc(CN2CCN(C(c3ccccc3)c3ccc(Cl)cc3)CC2)c1.Cl.Cl (stereo unspecified)
20

Note, next up: CC(C)(C)NC[C@H](O)COc1nsnc1N1CCOCC1
50
